- tested_system: human Fc (human)
- procedure_summary: ELISA, negative control
Each entry below carries its recorded optical density.
Expressed in OD, but write only the number.

Record 374_A06 (antibody, V domains shown) VH: EVQLLESGGGLVQPGGSLRLSCAASGFTFSSYSMNWVRQAPGKGLEWVSSINYNSGYTSYADSVKGRFTISRDNSKNTLYLQMNSLRAEDTAVYYCARGANWHDTHLDYWGQGTLVTVSS VL: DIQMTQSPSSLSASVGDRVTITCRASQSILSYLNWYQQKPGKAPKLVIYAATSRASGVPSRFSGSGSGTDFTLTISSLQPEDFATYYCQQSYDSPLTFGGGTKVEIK , field optical density: 0.173

Okay, now this binder:
In plain terms, 367_H04 (antibody, V domains shown) VH: EVQLLESGGGLVQPGGSLRLSCAASGFTFSSYSMNWVRQAPGKGLEWVSSINYNGGYTSYADSVKGRFTISRDNSKNTLYLQMNSLRAEDTAVYYCARSATWHDTHLDYWGQGTLVTVSS VL: DIQMTQSPSSLSASVGDRVTITCRASQSILTYVNWYQQKPGKAPKLLIYAATSRHSGVPSRFSGSGSGTDFTLTISSLQPEDFATYYCQQSDNNPLTFGGGTKVEIK has a documented optical density of 0.289
